The reported measurements were obtained from the supplement of paper PMC9663587.

GRmax, 72 h by entry:
- Tested on: MDAMB415
- ASSAY INFO: GRmax, 72 h; higher = less effect

{"MOLECULE": "O=C(c1cc(Cc2n[nH]c(=O)c3ccccc23)ccc1F)N1CCN(C(=O)C2CC2)CC1 [Olaparib/AZD2281] (max 10 µM)", "GRmax, 72 h, GR": 0.816}
{"MOLECULE": "C=CCn1c(=O)c2cnc(Nc3ccc(N4CCN(C)CC4)cc3)nc2n1-c1cccc(C(C)(C)O)n1 [AZD1775] (max 10 µM)", "GRmax, 72 h, GR": -0.186}
{"MOLECULE": "CN(C)C/C=C/C(=O)Nc1ccc(C(=O)Nc2cccc(Nc3ncc(Cl)c(-c4c[nH]c5ccccc45)n3)c2)cc1 [THZ1] (max 1 µM)", "GRmax, 72 h, GR": -0.421}
{"MOLECULE": "CNc1nc(-c2ccc3c(N)n[nH]c3c2)cc(N2C[C@@H](C(=O)NC3CCCCC3)CC[C@H]2C)n1 (max 10 µM)", "GRmax, 72 h, GR": 0.0477}
{"MOLECULE": "CC(=O)c1c(C)c2cnc(Nc3ccc(N4CCNCC4)cn3)nc2n(C2CCCC2)c1=O (max 3.162 µM)", "GRmax, 72 h, GR": 0.117}
{"MOLECULE": "CO[C@H]1C[C@@H]2CC[C@@H](C)[C@@](O)(O2)C(=O)C(=O)N2CCCC[C@H]2C(=O)O[C@H]([C@H](C)C[C@@H]2CC[C@@H](OCCO)[C@H](OC)C2)CC(=O)[C@H](C)/C=C(\\C)[C@@H](O)[C@@H](OC)C(=O)[C@H](C)C[C@H](C)/C=C/C=C/C=C/1C [Everolimus] (max 10 µM)", "GRmax, 72 h, GR": 0.0852}
{"MOLECULE": "COc1cccc(OCCCN)c1-c1cc(Nc2cnc(C#N)cn2)n[nH]1", "GRmax, 72 h, GR": 0.69}
{"MOLECULE": "CO[C@@H](C)Cn1c(=O)n(C)c2cnc3ccc(-c4cncc(C(C)(C)O)c4)cc3c21 (max 10 µM)", "GRmax, 72 h, GR": -0.473}
{"MOLECULE": "CN(C)C/C=C/C(=O)Nc1ccc(O[C@@H]2CCC[C@@H](Nc3ncc(Cl)c(-c4c[nH]c5ccccc45)n3)C2)cc1 [BSJ-01-175] (max 10 µM)", "GRmax, 72 h, GR": -0.491}
{"MOLECULE": "Cc1cc(C(C)Nc2ccccc2)c2nc(N3CCOCC3)cc(=O)n2c1 (stereo not given) [TGX221] (max 10 µM)", "GRmax, 72 h, GR": 0.184}

###

- Test system: MDAMB436
- ASSAY INFO: GRmax, 72 h; higher = less effect;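 further: breast cell lines in 384-well plates, nine doses across a 10^4 range, Dye Drop imaging of viable cells vs DMSO and time-zero plates, GR 0 means no net growth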

{"MOLECULE": "Cc1nc(-c2cn3c(n2)-c2ccc(-c4cnn(C(C)(C)C(N)=O)c4)cc2OCC3)n(C(C)C)n1 [Taselisib/GDC0032] (max 10 µM)", "UNITS": "GR", "GRmax, 72 h": 0.243}
{"MOLECULE": "Cc1nn(C)c(COc2ccc(N3CCN(S(=O)(=O)N(C)C)CC3)cc2)c1-c1cccc2c(CCCOc3cccc4ccccc34)c(C(=O)O)n(CCN3CCOCC3)c12 (max 10 µM)", "UNITS": "GR", "GRmax, 72 h": 0.873}
{"MOLECULE": "COc1cc([C@@H]2c3cc4c(cc3[C@@H](O[C@@H]3O[C@@H]5CO[C@@H](C)O[C@H]5[C@H](O)[C@H]3O)[C@H]3COC(=O)[C@H]23)OCO4)cc(OC)c1O [Etoposide] (max 10 µM)", "UNITS": "GR", "GRmax, 72 h": -0.157}
